# measurementNotes: in vitro
# conditionParameters: rat, hepatocytes
# Description: Intrinsic clearance in rat hepatocytes assessed per million cells by LC/MS/MS analysis
For each entry below, report its hepatocyte CLint value.
Don't forget the unit after the value.

Please review the following examples before continuing.
lineNotation | hepatocyte CLint
CC(C)Oc1cc(-n2cnc3ccc(N[C@@H](C)c4ccc(F)cn4)nc32)n[nH]1 | 42 µL/min/1e6 cells
COc1cc(Nc2nc3c(cc2F)ncn3[C@@H](CO)c2ccc(F)cn2)n[nH]1 | 29 µL/min/1e6 cells

# map each compound to its hepatocyte CLint
1. CC(C)Oc1cc(-n2cnc3ccc(N[C@@H](CO)c4ccc(F)cn4)nc32)n[nH]1
2. C[C@H](Nc1ccc2ncn(-c3cc(C4CC4)[nH]n3)c2n1)c1ncc(F)cn1

Reply:
13 µL/min/1e6 cells
48 µL/min/1e6 cells

# map each compound to its hepatocyte CLint
1. CC(C)Oc1cc(Nc2nc3c(cc2F)ncn3[C@@H](CO)c2ccc(F)cn2)n[nH]1
2. CC(C)Oc1cc(-n2cnc3cnc(N[C@@H](C)c4ncc(F)cn4)nc32)n[nH]1

Reply:
["31 µL/min/1e6 cells", "24 µL/min/1e6 cells"]
